# assay notes: Plasma pharmacokinetics after oral TAK-285 (LC-MS/MS, noncompartmental)
# Format: in vivo, human (Japanese patients)
# particulars: human, plasma, oral, 50 mg b.i.d., multiple dosing day 21; 50 mg b.i.d., dose escalation cohort; median (range)
endpoint: Tmax (h)
Give bare numbers, in h.

Please indicate Tmax recorded for CC(C)(O)CC(=O)NCCn1ccc2ncnc(Nc3ccc(Oc4cccc(C(F)(F)F)c4)c(Cl)c3)c21 2.05

---

# assay notes: Plasma pharmacokinetics after oral TAK-285 (LC-MS/MS, noncompartmental)
# Format: in vivo, human (Japanese patients)
# particulars: human, plasma, oral, 50 mg q.d., multiple dosing day 21; 50 mg q.d., dose escalation cohort; mean (s.d.); read-out: t1/2 (converted)
endpoint: half-life (h)
Give bare numbers, in h.

Please indicate half-life recorded for CC(C)(O)CC(=O)NCCn1ccc2ncnc(Nc3ccc(Oc4cccc(C(F)(F)F)c4)c(Cl)c3)c21 8.69

---

# assay notes: Plasma pharmacokinetics after oral TAK-285 (LC-MS/MS, noncompartmental)
# Assay type: in vivo, human (Japanese patients)
# particulars: human, plasma, oral, 50 mg, single dosing; 50 mg q.d., dose escalation cohort; median (range)
endpoint: Tmax

Please indicate Tmax recorded for CC(C)(O)CC(=O)NCCn1ccc2ncnc(Nc3ccc(Oc4cccc(C(F)(F)F)c4)c(Cl)c3)c21 1.49 h

---

# assay notes: Plasma pharmacokinetics after oral TAK-285 (LC-MS/MS, noncompartmental)
# Format: in vivo, human (Japanese patients)
# particulars: human, plasma, oral, 50 mg, single dosing; 50 mg q.d., dose escalation cohort; mean (s.d.)
endpoint: AUC(0-inf) (ng·h/mL)
Numbers only, in ng·h/mL.

Please indicate AUC(0-inf) recorded for CC(C)(O)CC(=O)NCCn1ccc2ncnc(Nc3ccc(Oc4cccc(C(F)(F)F)c4)c(Cl)c3)c21 1730

---

# assay notes: Plasma pharmacokinetics after oral TAK-285 (LC-MS/MS, noncompartmental)
# Assay type: in vivo, human (Japanese patients)
# particulars: human, plasma, oral, 300 mg, single dosing; 300 mg b.i.d., repeated administration cohort; mean (s.d.)
# Procedure: In the dose escalation cohort, plasma samples for PK analysis were collected at predose and up to 72 h after single dose administration and on day 21 after repeated administration of TAK-285. Urine samples were also collected up to 24-h postdose. […] Concentrations of TAK-285 and M-I in plasma and urine were determined using validated liquid chromatography tandem mass spectrometry (LC-MS/MS) methods. […]
endpoint: Cmax (ng/mL)
One number for each entry, in ng/mL.

Please indicate Cmax recorded for CC(C)(O)CC(=O)NCCn1ccc2ncnc(Nc3ccc(Oc4cccc(C(F)(F)F)c4)c(Cl)c3)c21 [TAK-285] 983
